- Assay protocol: soluble fraction after stress (log2 fold change); higher = more stays soluble; pooled small domains, quantitative proteomics;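 note: 20 min heating vs room temperature control held 20 min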
- Condition details: stress: 75 degC
Exercise: state measured soluble fraction (log2) for each of the sequences provided.
Lab note: record the figure alone, no unit after it.

Ask: // soluble fraction (log2) lookup, key: "HMPAGWIPARIRLADYPQLRSLAWHVQGIDTLTPTEALDIYERNARHLDAQAMSAQEQDLLASLRLALS"
Reply: -0.888

Ask: Moving on to "HMDVNMLVTGMLHKGEKSFVRVSFLRGKDWAEGIVPDAKIEKSQGFMEEEVARLEAYLLEQKSMIMEQA"
Reply: -1.83

Ask: Consider next the sequence "HMGDPEYFKKQLGDFMDRFNITSEDIKNLSIAGAINRMMNNAEGEDKTVLSKLLETVNKSGVGNLPAKTI" in the same way.
Reply: -0.0106

Ask: Consider next the sequence "HMVNKQERTYTILRDRIHSGSFAPLERLNIDALARELGVSPIPVREALRRLEAEGWVRFTPNVGAVVSP" in the same way.
Reply: -0.509

Ask: Next entry: "HMSFNGTILSNYQKTYPNLAKFTYDQANDALVYEGNFIKLNGYGLSRIDPVFFNMNPDEIFIFIKNG"
Reply: -3.85

Ask: // query: "HMSLNHDIWVQELKEKRSGYGISQSRLAIAAGMTRQYLSDIETGKVLPSAERKAAITEALERFNPD"
Reply: -0.348

Ask: Now consider "HMSLDTASDKELLGLIVSEPIATRVLDAFRTLDATLFRTTPAELAAAAGVSSEHAQKIKAVAEIAARMLKP" and answer again.
Reply: -0.343

Ask: Record: "HMRIEYYDDEELDRYIGTPASGYREAAVEEFREILLTLDADDVPGWVRSLQLRGIEFPESLRPELYL"
Reply: -0.568

Ask: Same read-out for "HMRPHDDHLREQLLGIATETIARTGVEGLSLRTLATDAGTSTSAVYQLFGSRAALLDAVYLRVLE" ?
Reply: -1.47

Ask: // repeat for "HMASMNPVWLEFPNIPWGSAGWRMGWGEDYMRRWAKWYISLAEVERQSYKSDWPEPQEWEGFYAFMEHGT" and report
Reply: -1.85

Ask: Request: "HMVSDAWITGKVKSQLLADDVTPGMKIDVDTEDRIVSLKGTVPSLTARNEAIRIASHTKGVRTVDADELIV"
Reply: 0.17

# credit: the domain aggregation screens of Martell et al. (2025)
